Data provenance is PubChem BioAssay (NCATS).

Test system: Es-2
Test: Primary qHTS to identify gynecologic anti-cancer compounds using libraries of approved drugs and bioactive compounds (AID 1345084); note: % is set by controls: 0 for no effect and ±100 for the full control effect; nearly all actives have a fitted effect of over 55% in size
Details: Gynecologic cancer cell panel viability, ATPlite luminescence, 48 h; series mostly up to 57.5 µM
Records with an inconclusive call do not appear. The source made the active and inactive calls. Calls come from the whole dose curve; as a rule, active = well fitted cell-killing curve with a large enough effect; inconclusive = small, poorly fitted or top-dose-only effect, or effect the other way; inactive = flat fitted curve, though single readings scatter.
OBSERVABLE: outcome

Illustrative cases are given below, each with its answer.
- MOLECULE: "C=C1C(=O)O[C@@H]2C=C(COC(C)=O)CC/C=C(\\CO)CC[C@@H]12"
  outcome: "inactive"
- MOLECULE: "NC(=O)C1=CC2C3C=CC2C(OC3=O)O1 (stereo unspecified)"
  outcome: "inactive"
- MOLECULE: "O=C(NCc1ccc(OC(F)(F)F)cc1)C1c2c(F)cccc2C(=O)N1CCc1ccccn1 (stereo unspecified)"
  outcome: "inactive"
- MOLECULE: "CC(=O)O[C@@H]1CC2C(C)(C)C(=O)C=C[C@]2(C)C2CC[C@@]3(C)[C@H](c4ccoc4)OC(=O)[C@H]4O[C@]43[C@@]21C (stereo partly specified)"
  outcome: "inactive"
- MOLECULE: "CCN(c1cc(-c2ccc(CN3CCOCC3)cc2)cc(C(=O)NCc2c(C)cc(C)[nH]c2=O)c1C)C1CCOCC1"
  outcome: "inactive"
- MOLECULE: "Cc1ccc(N2CCN(CCC3NC(=O)c4ccccc43)CC2)cc1C (stereo unspecified)"
  outcome: "inactive"
- MOLECULE: "CC(C)(O)c1ccn2c(-c3ccc(F)c(-c4ccc(F)cc4C#N)c3)cnc2c1F"
  outcome: "inactive"
- MOLECULE: "CC(=O)NC[C@H]1CN(c2ccc(N3CCSCC3)c(F)c2)C(=O)O1"
  outcome: "inactive"

Memo: Cc1cc2c(N3CCCC3)nc(N3CCCC3)nc2n1C , reported outcome: inactive

Memo: CC(C)=CCCC1(C)C2CCC1(C)C(O)C2 (stereo unspecified) , reported outcome: inactive

Memo: CNC(=O)COC(=O)N1CCC(CCc2ccc(Cl)cc2)CC1 , reported outcome: inactive

====

Assay: P-glycoprotein substrates identified in KB-8-5-11 adenocarcinoma cell line, qHTS therapeutic library screen (AID 1346987); note: nearly all actives have a fitted effect of over 65% in size
Conditions: KB-8-5-11 (P-gp overexpressing) viability, CellTiter-Glo, 72 h; series mostly up to 44.5 µM
Records with an inconclusive call do not appear. The source made the active and inactive calls. Calls follow the shape of the dose curve; as a rule, active = well fitted inhibition curve with a large enough effect; inconclusive = small, poorly fitted or top-dose-only effect; inactive = flat fitted curve, though single readings scatter.
Pick one and only one: active, inactive

- COMPOUND: "O=C1O[C@@H]2[C@@H](O)[C@H](O)O[C@@H]2[C@H]1O"
  CLASS_LABEL: "inactive"
- COMPOUND: "Cc1ccccc1CN1CCn2c1nc1c(c2=O)CN(Cc2ccccc2)CC1"
  CLASS_LABEL: "inactive"
- COMPOUND: "C/C(=C/CO)CCC1C(C)CCC2C(C)(C)CCCC12C (configuration not stated)"
  CLASS_LABEL: "inactive"
- COMPOUND: "CC[N+]1(C/C2=C/CCCCCC2)CCC(NC(=O)C2c3cc(Cl)ccc3Oc3ccc(Cl)cc32)CC1 (configuration not stated)"
  CLASS_LABEL: "inactive"
- COMPOUND: "C#CCCCn1cc(-c2cccc3c2N[C@H](C)CC(=O)N3)cn1"
  CLASS_LABEL: "active"
- COMPOUND: "COc1cc(/C=N\\NC(=O)c2ccc3c(c2)OCO3)ccc1OCc1ccccc1"
  CLASS_LABEL: "inactive"
- COMPOUND: "CCNC(=O)N1CCCN(c2ccc(C(=O)NCCc3ccc(Cl)cc3Cl)cc2NC(=O)c2cccc(Cl)c2)CC1"
  CLASS_LABEL: "inactive"
- COMPOUND: "Cc1[nH]c2ccccc2c1CCNC(=O)c1cccs1"
  CLASS_LABEL: "inactive"

-- ask What is the recorded call for this compound in the test? CC[C@H]1OC(=O)[C@H](C)[C@@H](O[C@H]2C[C@@](C)(OC)[C@@H](O)[C@H](C)O2)[C@H](C)[C@@H](O[C@@H]2O[C@H](C)C[C@H](N(C)C)[C@H]2O)[C@](C)(O)C[C@@H](C)[C@@H]2N[C@@H](COCCOC)O[C@@H]([C@H]2C)[C@]1(C)O
-- reply inactive

-- ask What is the recorded call for this compound in the test? Cc1cc(OCCCS(C)(=O)=O)cc(C)c1-c1cccc(COc2ccc(C3=CC(=O)NS3=O)cc2)c1 (configuration not stated)
-- reply inactive

-- ask What is the recorded call for this compound in the test? C=C1C(=O)OC2/C=C(\CO)CC/C=C(\C=O)C(O)C(OC(=O)C(C)CC)C12 (configuration not stated)
-- reply inactive

-- ask What is the recorded call for this compound in the test? CCC(CN)CC(C)CCNCC(O)CNCC(C)CC(CC)CN (configuration not stated)
-- reply inactive

-- ask What is the recorded call for this compound in the test? CC1(C)OC[C@H](NC(=O)Nc2ccc(Br)cc2Br)[C@H](c2ccccc2)O1
-- reply inactive

-- ask What is the recorded call for this compound in the test? CCC(=O)O
-- reply inactive

-- ask What is the recorded call for this compound in the test? O=C(NCCN1CCN(c2cccc3ccc(O)cc23)CC1)c1ccc(F)cc1
-- reply inactive

-- ask What is the recorded call for this compound in the test? CC(=O)OC1CC2(C)C(CCC(C)C23Cc2c(O)cc(CO)c(C=O)c2O3)C(C)(C)C1O (configuration not stated)
-- reply inactive

-- ask What is the recorded call for this compound in the test? NC(=O)N1CCC(CC(=O)N2CCC(C3c4ncc(Br)cc4CCc4cc(Cl)cc(Br)c43)CC2)CC1 (configuration not stated)
-- reply active

====

The reader will find reported max response values listed item by item below.
Tested on: KB-3-1
Test: Cytotoxic Profiling of Annotated Libraries Using Quantitative High-Throughput Screening (AID 1296008); note: % is set by controls: 0 for no effect and ±100 for the full control effect; nearly all actives have a fitted effect of over 60% in size
Details: Five cell lines viability, CellTiter-Glo ATP luminescence, 48-72 h; hits give low values
Inconclusive results are not listed.
State just the number; it will be interpreted in %.

- COMPOUND: "CC(C)(O)C1Cc2c(ccc(C(=O)CCc3ccccc3)c2O)O1 (configuration not stated)"
  max response [%]: -17.9
- COMPOUND: "CC[C@H](C)/C=C(C)/C=C/C1=CC2=CC(=O)[C@]3(C)OC(=O)[C@@H](C(C)=O)[C@@H]3C2=CO1"
  max response [%]: 4.01
- COMPOUND: "O=C(C(Cc1cccc(C(F)(F)F)c1)NS(=O)(=O)c1cc(F)c2c(c1)CCNC2)N1CCCC1 (configuration not stated)"
  max response [%]: -6.26
- COMPOUND: "C=CC(C)(O)CC/C=C(\\C)C(=O)OC1C(O)C(CO)OC(OC(=O)C23CCC(C)(C)CC2C2=CCC4C5(C)CCC(OC6OC(COC7OCC(OC(C)=O)C(O)C7OC7OC(COC(C)=O)C(O)C(O)C7OC(C)=O)C(O)C(O)C6OC6OCC(O)C(O)C6O)C(C)(C)C5CCC4(C)C2(C)C(O)C3O)C1OC1OCC(OC2OCC(O)C(OC3OCC(O)C(O)C3O)C2O)C(O)C1O (configuration not stated)"
  max response [%]: -19.5

Memo: CC(=O)NC[C@H]1CN(c2ccc(N3CCSCC3)c(F)c2)C(=O)O1 , reported max response: -11.9

====

Test system: Zika virus NS2B-NS3 protease (unlinked complex)
Experiment: Primary screen GU Rhodamine qHTS for Zika virus inhibitors: Unlinked NS2B-NS3 protease assay (AID 1347159); note: nearly all actives have a fitted effect of over 60% in size; note: potency is the fitted concentration of half-maximal effect
Settings: Recombinant ZIKV NS2B-NS3 protease, Rhodamine110 substrate fluorescence; series mostly up to 107 µM
Inconclusive results are not listed. Active and inactive are the calls of the source. Calls come from the whole dose curve; as a rule, active = well fitted inhibition curve with a large enough effect; inconclusive = small, poorly fitted or top-dose-only effect; inactive = no such curve, though single readings can be large or run the other way.
OBSERVABLE: Potency

- COMPOUND: "CN(c1ccc(NC(=O)Nc2ccccc2)cc1)S(=O)(=O)c1cnn(-c2ccc(F)cc2)c1"
  OBSERVABLE: "Potency"
  RECORDED_MEASUREMENT: "inactive"
- COMPOUND: "C/C=C/C=C/c1cc2c(C=O)c(O)c(CC=C(C)C)cc2o1"
  OBSERVABLE: "Potency"
  RECORDED_MEASUREMENT: "12.6 µM (active)"
- COMPOUND: "CCC1C(=O)N(C)c2cnc(Nc3ccc(C(=O)NC4CCN(C)CC4)cc3OC)nc2N1C1CCCC1 (stereo not drawn)"
  OBSERVABLE: "Potency"
  RECORDED_MEASUREMENT: "inactive"

====

System: Zika virus NS2B-NS3 protease (linked construct)
Test: Primary screen NINDS Rhodamine qHTS for Zika virus inhibitors (AID 1347160); note: nearly all actives have a fitted effect of over 55% in size
Conditions: purified NS2B-NS3 protease, Rhodamine110 substrate fluorescence; series mostly up to 57.1 µM
Results filed as inconclusive are left out. Activity calls are given as the source filed them. Calls come from the whole dose curve; as a rule, active = well fitted inhibition curve with a large enough effect; inconclusive = small, poorly fitted or top-dose-only effect; inactive = no such curve, though single readings can be large or run the other way.
Pick one and only one: active, inactive

Please review the following examples before continuing.
- COMPOUND: "CCOC(=O)C1(CCOc2ccccc2)CCN(Cc2ccc(O)c(Cl)c2)CC1"
  CLASS_LABEL: "inactive"
- COMPOUND: "N[C@@H]1c2cccnc2[C@H](OC(=O)N2CCC(n3c(=O)[nH]c4ncccc43)CC2)CC[C@H]1c1cccc(F)c1F"
  CLASS_LABEL: "inactive"
- COMPOUND: "CCN(CC)CCCS(=O)(=O)N[C@H](CCc1ccccc1)c1nc(Cc2ccc(Br)cc2)no1"
  CLASS_LABEL: "inactive"
- COMPOUND: "COc1ccc(CCCN2CCC(COC(c3ccccc3)c3ccccc3)CC2)cc1"
  CLASS_LABEL: "inactive"
- COMPOUND: "CC(C)(CNC(=O)c1cccc(-c2noc(C(F)(F)F)n2)c1)c1coc(-c2ccccc2)n1"
  CLASS_LABEL: "inactive"
- COMPOUND: "CCC1C(=O)N(C)c2cnc(Nc3ccc(C(=O)NC4CCN(C)CC4)cc3OC)nc2N1C1CCCC1 (stereo not given)"
  CLASS_LABEL: "inactive"

-- ask What is the recorded call for this compound in the test? COC1CC(O[C@H]2CC[C@]3(C)C4CC[C@]5(C)C(C6=CC(=O)OC6)=CCC56OC46CC[C@@H]3C2)OC(C)C1O[C@@H]1O[C@H](CO[C@@H]2O[C@H](CO)[C@@H](O)[C@H](O)[C@H]2O)[C@@H](O)[C@H](O)[C@H]1O (stereo not given in full)
-- reply inactive

-- ask What is the recorded call for this compound in the test? CC#C[C@@H](CC(=O)O)c1ccc(OCc2ccc(CN3CCC4(C=Cc5ccccc54)CC3)s2)cc1
-- reply active

-- ask What is the recorded call for this compound in the test? C#CC(=O)N(c1ccc(OC)cc1OC)C(C(=O)NCC(=O)OCC)c1cccs1 (stereo not given)
-- reply inactive

-- ask What is the recorded call for this compound in the test? Cc1cc(C)nc(SCC(=O)Nc2ncc(Cc3cccc4ccccc34)s2)n1
-- reply inactive

-- ask What is the recorded call for this compound in the test? CNCCCC1(c2ccccc2)OC(C)(C)c2ccccc21 (stereo not given)
-- reply inactive
